- System: 786-0 renal
- Assay text: NCI tumour cell line growth inhibition, 48 h
Readings of TGI for the listed molecules

Some entries whose results are on file:
                                   molecule  reported_property    result
0  CNC(=O)Nc1ccc(-c2nc(N3CCOCC3)nc3c2cnn3C2CCOCC2)cc1                TGI   2.86 µM
1  C[n+]1c(-c2ccc(NC(=O)c3ccc(C(=O)Nc4ccc(-c5cn6ccccc6[n+]5C)cc4)cc3)cc2)cn2ccccc21                TGI  > 100 µM

In: Return reported TGI; argument: `O=C1[C@@H](c2ccc(Cl)cc2)[C@H]2CC=C[C@H]2N1O`
Out: > 100 µM

In: Return reported TGI; argument: O=C1CC(c2ccccc2Cl)C2(C(=O)NC(=O)NC2=O)C(c2ccccc2Cl)C1 (stereo not given)
Out: > 100 µM

In: Return reported TGI; argument: `O=C1c2cccnc2S(=O)(=O)N1c1ccc([N+](=O)[O-])cc1`
Out: > 100 µM

====

- System: HS 578T breast
- Assay text: NCI tumour cell line growth inhibition, 48 h
Reported property: TGI (µM)
Note: unit µM is implicit; provide only the numeric part.

Some entries whose results are on file:
                                   compound  reported_property  readout_number
0  N=C(N)c1ccc(-c2ccc(-c3ccc(Cl)cc3Cl)o2)cc1                TGI            4.99
1  N/C(=N\OC(=O)c1ccccc1)C(C(=O)NOC(=O)c1ccccc1)C1CCCCC1 (centres undefined)                TGI            7.93
2  COc1cc2cc(Oc3ccc(NC(=O)c4cccc(C(F)(F)F)c4)cc3)c(C)nc2cc1OC                TGI            58.4

In: Return reported TGI; argument: `C[C@]12CC[C@@H]3c4ccc(O)c([N+](=O)[O-])c4CC[C@H]3[C@@H]1CC[C@@H]2NS(=O)(=O)c1ccc(C(F)(F)F)cc1`
Out: 6.56

====

Readings of GI50 for the listed compounds
- System: MALME-3M melanoma
- Assay text: NCI tumour cell line growth inhibition, 48 h

Some entries whose results are on file:
                                   compound  reported_property       result
0  O=C(Nc1ccc(OC(F)(F)F)cc1)c1sccc1NCc1ccnc2ccccc12               GI50      1850 nM
1  Clc1ccc([O][In]([O]c2ccc(Cl)cn2)[O]c2ccc(Cl)cn2)nc1               GI50  > 100000 nM
2  C#C[C@]1(O)CC[C@H]2[C@@H]3CC=C4c5nc(Nc6ccccn6)sc5CC[C@]4(C)[C@H]3CC[C@@]21C               GI50       677 nM

In: Return reported GI50; argument: `C/C(=N\O)c1ccc(Nc2cc(-n3nnc4ccccc43)nc3ccccc23)cc1`
Out: 11200 nM

In: Return reported GI50; argument: COc1cc(C2c3cc4c(cc3[C@@H](Nc3ccc(N(C)C)cc3)[C@H]3COC(=O)C23)OCO4)cc(OC)c1O (stereo partly specified)
Out: 1600 nM
